# ASSAY NOTES: Biodistribution of 177Lu-labeled αMSH analogues in mice bearing B16F10 mouse melanoma
# Format: in vivo, C57BL/6J mice
# STUDY CONDITIONS: mouse, pancreas, iv, total radioactivity; 120 h p.i., C57BL/6J mice, B16F10 melanoma; read-out: Biodistribution, Pancreas
READOUT KIND: tissue uptake at 120 h (%ID/g)
Provide only the numeric value, understood in %ID/g.

# MOLECULE, tissue uptake at 120 h [%ID/g]
records = [
    ("CCCC[C@H](NC(=O)CN1CCC(NC(=O)[C@H](CCCCNC(=O)CN2CCN(CC(=O)O)CCN(CC(=O)O)CCN(CC(=O)O)CC2)NC(=O)[C@H](CCC(=O)O)NC(=O)CCCc2ccc(I)cc2)CC1)C(=O)N[C@H]1CC(=O)NCCCC[C@@H](C(N)=O)N(C)C(=O)[C@H](Cc2c[nH]c3ccccc23)NC(=O)[C@H](CCCNC(=N)N)N(C)C(=O)[C@@H](Cc2ccccc2)NC(=O)[C@H](Cc2c[nH]cn2)NC1=O [^177Lu-labeled CCZ01118, metal not drawn]", 0.05),
    ("CCCC[C@H](NC(=O)CN1CCC(NC(=O)[C@H](CCCCNC(=O)CN2CCN(CC(=O)O)CCN(CC(=O)O)CCN(CC(=O)O)CC2)NC(=O)[C@H](CCC(=O)O)NC(=O)CCCc2ccc(I)cc2)CC1)C(=O)N[C@H]1CC(=O)NCCCC[C@@H](C(N)=O)N(C)C(=O)[C@H](Cc2c[nH]c3ccccc23)N(C)C(=O)[C@H](CCCNC(=N)N)N(C)C(=O)[C@@H](Cc2ccccc2)NC(=O)[C@H](Cc2c[nH]cn2)N(C)C1=O [^177Lu-labeled CCZ01088, metal not drawn]", 0.06),
]

Attention now turns to another entry.
Please fill in: tissue uptake at 120 h reported for CCCC[C@H](NC(=O)CN1CCC(NC(=O)CN2CCN(CC(=O)O)CCN(CC(=O)O)CCN(CC(=O)O)CC2)CC1)C(=O)N[C@H]1CC(=O)NCCCC[C@@H](C(N)=O)N(C)C(=O)[C@H](Cc2c[nH]c3ccccc23)N(C)C(=O)[C@H](CCCNC(=N)N)N(C)C(=O)[C@@H](Cc2ccccc2)NC(=O)[C@H](Cc2c[nH]cn2)N(C)C1=O [^177Lu-labeled CCZ01099, metal not drawn] = 0.02

###

# ASSAY NOTES: Biodistribution of 177Lu-labeled αMSH analogues in mice bearing B16F10 mouse melanoma
# Format: in vivo, C57BL/6J mice
# STUDY CONDITIONS: mouse, intestine, iv, total radioactivity; 4 h p.i., C57BL/6J mice, B16F10 melanoma; read-out: Biodistribution, Intestine
Each item that follows carries a reported tissue uptake at 4 h.
Provide only the numeric value, understood in %ID/g.

# COMPOUND, tissue uptake at 4 h [%ID/g]
data = [
    ("CCCC[C@H](NC(=O)CN1CCC(NC(=O)CN2CCN(CC(=O)O)CCN(CC(=O)O)CCN(CC(=O)O)CC2)CC1)C(=O)N[C@H]1CC(=O)NCCCC[C@@H](C(N)=O)N(C)C(=O)[C@H](Cc2c[nH]c3ccccc23)N(C)C(=O)[C@H](CCCNC(=N)N)N(C)C(=O)[C@@H](Cc2ccccc2)NC(=O)[C@H](Cc2c[nH]cn2)N(C)C1=O [^177Lu-labeled CCZ01099, metal not drawn]", 0.12),
    ("CCCC[C@H](NC(=O)CN1CCC(NC(=O)[C@H](CCCCNC(=O)CN2CCN(CC(=O)O)CCN(CC(=O)O)CCN(CC(=O)O)CC2)NC(=O)[C@H](CCC(=O)O)NC(=O)CCCc2ccc(I)cc2)CC1)C(=O)N[C@H]1CC(=O)NCCCC[C@@H](C(N)=O)NC(=O)[C@H](Cc2c[nH]c3ccccc23)NC(=O)[C@H](CCCNC(=N)N)NC(=O)[C@@H](Cc2ccccc2)NC(=O)[C@H](Cc2c[nH]cn2)NC1=O [^177Lu-labeled CCZ01082, metal not drawn]", 2.91),
]

Please fill in: tissue uptake at 4 h reported for CCCC[C@H](NC(=O)CN1CCC(NC(=O)CN2CCN(CC(=O)O)CCN(CC(=O)O)CCN(CC(=O)O)CC2)CC1)C(=O)N[C@H]1CC(=O)NCCCC[C@@H](C(N)=O)NC(=O)[C@H](Cc2c[nH]c3ccccc23)NC(=O)[C@H](CCCNC(=N)N)NC(=O)[C@@H](Cc2ccccc2)NC(=O)[C@H](Cc2c[nH]cn2)NC1=O [^177Lu-labeled CCZ01048, metal not drawn, reference compound] = 0.49

Please fill in: tissue uptake at 4 h reported for CCCC[C@H](NC(=O)CN1CCC(NC(=O)CN2CCN(CC(=O)O)CCN(CC(=O)O)CCN(CC(=O)O)CC2)CC1)C(=O)N[C@H]1CC(=O)NCCCC[C@@H](C(N)=O)N(C)C(=O)[C@H](Cc2c[nH]c3ccccc23)NC(=O)[C@H](CCCNC(=N)N)N(C)C(=O)[C@@H](Cc2ccccc2)NC(=O)[C@H](Cc2c[nH]cn2)NC1=O [^177Lu-labeled CCZ01106, metal not drawn] = 0.11

Please fill in: tissue uptake at 4 h reported for CCCC[C@H](NC(=O)CN1CCC(NC(=O)[C@H](CCCCNC(=O)CN2CCN(CC(=O)O)CCN(CC(=O)O)CCN(CC(=O)O)CC2)NC(=O)[C@H](CCC(=O)O)NC(=O)CCCc2ccc(I)cc2)CC1)C(=O)N[C@H]1CC(=O)NCCCC[C@@H](C(N)=O)N(C)C(=O)[C@H](Cc2c[nH]c3ccccc23)N(C)C(=O)[C@H](CCCNC(=N)N)N(C)C(=O)[C@@H](Cc2ccccc2)NC(=O)[C@H](Cc2c[nH]cn2)N(C)C1=O [^177Lu-labeled CCZ01088, metal not drawn] = 0.37

Please fill in: tissue uptake at 4 h reported for CCCC[C@H](NC(=O)CN1CCC(NC(=O)[C@H](CCCCNC(=O)CN2CCN(CC(=O)O)CCN(CC(=O)O)CCN(CC(=O)O)CC2)NC(=O)[C@H](CCC(=O)O)NC(=O)CCCc2ccc(I)cc2)CC1)C(=O)N[C@H]1CC(=O)NCCCC[C@@H](C(N)=O)N(C)C(=O)[C@H](Cc2c[nH]c3ccccc23)NC(=O)[C@H](CCCNC(=N)N)N(C)C(=O)[C@@H](Cc2ccccc2)NC(=O)[C@H](Cc2c[nH]cn2)NC1=O [^177Lu-labeled CCZ01118, metal not drawn] = 1.53
